These data points were gathered from patent US20260232666A1.

Overview of recorded IC50 for various compounds
# Tested on: pERK in NCI-H358 cells
# EXPERIMENT: Cell-based pERK HTRF assay (pERK inhibition in H358 cells)
# COND: Homo sapiens, NCI-H358, 0.5 h, 30 min incubation

CHEM_SMILES: C=CC(=O)N1CC[C@@H](N(C)c2nc(OC[C@@H]3CCCN3C)nc3c(F)c(-c4ccc(F)c5sc(N)c(C#N)c45)c(Cl)cc23)[C@@H]1C
IC50: < 100 nM

CHEM_SMILES: C=CC(=O)N1CC[C@@H](N(C)c2nc(OC[C@@]34CCCN3C[C@H](F)C4)nc3cc(-c4nc(N)cc(C)c4C(F)(F)F)c(F)cc23)[C@H]1C
IC50: 100 to 1000 nM

CHEM_SMILES: C=CC(=O)N1CC[C@@H](N(CC)c2nc(OC[C@]34CCCN3C[C@H](F)C4)nc3c(F)c(-c4ccc(F)c5sc(N)c(C#N)c45)ccc23)[C@H]1C
IC50: < 100 nM

CHEM_SMILES: C=CC(=O)N1CC[C@@H](N(C)c2nc(OC[C@]34CCCN3C[C@H](OC)C4)nc3c(F)c(-c4ccc(F)c5sc(N)c(C#N)c45)c(Cl)cc23)[C@H]1C
IC50: < 100 nM

CHEM_SMILES: C=CC(=O)N1CC2CCC(C1)N2c1nc(OC[C@@]23CCCN2C[C@H](F)C3)nc2c(F)c(-c3ccc(F)c4sc(N)c(C#N)c34)c(C(F)(F)F)cc12
IC50: < 100 nM

###

# SYSTEM_UNDER_TEST: Avi-KRAS G12C (1-169) GppNHp/RAF1 RBD-3×FLAG (52-151) (Homo sapiens, UniProt P01116, G12C)
# Construct: Avi-KRAS G12C (1-169) GppNHp; Avi (N)
# Sequence (P01116 1-169 isoform P01116-2 G12C limits assumed): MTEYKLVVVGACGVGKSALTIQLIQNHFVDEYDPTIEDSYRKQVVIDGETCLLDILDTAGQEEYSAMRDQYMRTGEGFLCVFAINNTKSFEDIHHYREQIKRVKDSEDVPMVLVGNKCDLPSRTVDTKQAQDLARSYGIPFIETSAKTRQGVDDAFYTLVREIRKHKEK
# EXPERIMENT: Raf1 RBD-KRAS G12C-GppNHp disruption assay (protein:protein interaction HTRF)
pIC50: −log10 of the molar value.
Overview of recorded pIC50 for various compounds
PROPERTY_LABEL: pIC50

COMPOUND: C=CC(=O)N1CC[C@@H](N(C)c2nc(OC[C@@]34CCCN3C[C@H](F)C4)nc3cc(-c4ccc(F)c5sc(N)c(C#N)c45)c(C#N)cc23)[C@H]1C [Compound 16]
RESULT: > 6.30
--
COMPOUND: C=CC(=O)N1CC[C@@H](N(C)c2nc(OC[C@@]34CCCN3C[C@H](F)C4)nc3cc(-c4ccc(F)c5sc(N)c(C#N)c45)c(C#N)cc23)[C@H]1CC [Compound 42]
RESULT: > 6.30
--
COMPOUND: C=CC(=O)N1CC[C@@H](N(C)c2nc(OC[C@@H]3C[C@@H](F)CN3CC)nc3c(F)c(-c4ccc(F)c5sc(N)c(C#N)c45)c(C(F)(F)F)cc23)[C@@H]1C [Compound 144]
RESULT: > 6.30
--
COMPOUND: C=CC(=O)N1CC[C@H](N(C)c2nc(OC[C@@]34CCCN3C[C@H](F)C4)nc3c(F)c(-c4ccc(F)c5sc(N)c(C#N)c45)c(C(F)(F)F)cc23)[C@@H]1C [Compound 5]
RESULT: > 6.30
--
COMPOUND: C=CC(=O)N1CC[C@@H](N(C)c2nc(OC[C@@H]3CCCN3CC)nc3c(F)c(-c4ccc(F)c5sc(N)c(C#N)c45)c(Cl)cc23)[C@@H]1C [Compound 84]
RESULT: > 6.30
